Each record here notes measured melting point.
endpoint.label: melting point

[[record]]
molecule = "O=C1CN(CCC(O)C2CCCCC2)C(=O)N1 (configuration not stated)"
endpoint_label = "melting point"
value = "97 to 99 °C"

[[record]]
molecule = "Cc1ccc(-c2cc(Cl)cc3c2NC(CN)CO3)c(C(F)(F)F)c1 (configuration not stated)"
endpoint_label = "melting point"
value = "98 °C"

[[record]]
molecule = "CCc1ccc(Nc2ncc(Cc3ccc(O)nc3)c3ncccc23)cc1Br"
endpoint_label = "melting point"
value = "262 to 265 °C"

[[record]]
molecule = "CSc1nc(NC2CCCCC2)c2ccnc-2[nH]1"
endpoint_label = "melting point"
value = "189 to 190 °C"

[[record]]
molecule = "O=C(Nc1cc(-c2cccc(-c3ccccc3)c2)[nH]n1)C1Cc2ccccc2C1"
endpoint_label = "melting point"
value = "108 to 110 °C"

[[record]]
molecule = "CCN(CC)C(=O)c1ccc(-c2nc(=O)c3ccccc3s2)nc1"
endpoint_label = "melting point"
value = "193 °C"

[[record]]
molecule = "CC(c1oc2ccccc2c(=O)c1-c1ccc(F)cc1)n1cnc2c(N)ncnc21 (configuration not stated)"
endpoint_label = "melting point"
value = "210 to 212 °C"

[[record]]
molecule = "OCCOc1ccc(C2=NCCO2)cc1"
endpoint_label = "melting point"
value = "149 to 150 °C"

[[record]]
molecule = "O=C1CCC(c2ccccc2)(c2ccccc2)[C@@H]2CN(C(=O)Cc3ccccc3O)C[C@H]12 (racemic)"
endpoint_label = "melting point"
value = "232 °C"

[[record]]
molecule = "CCCN(CCC)C(=O)Cc1ccc(OCc2ccccc2)c([N+](=O)[O-])c1"
endpoint_label = "melting point"
value = "67 to 68 °C"

[[record]]
molecule = "COc1ccc([C@@H]2Sc3cc(C)c(C)cc3N(CCN(C)C)C(=O)[C@@H]2O)cc1"
endpoint_label = "melting point"
value = "117 to 118 °C"

[[record]]
molecule = "CC1(C)c2cc(OS(C)(=O)=O)ccc2OC1N1CCCCC1 (configuration not stated)"
endpoint_label = "melting point"
value = "97 to 98 °C"

[[record]]
molecule = "O=P(O)(O)C(O)(CCCc1ccc(Cl)cc1)P(=O)(O)O"
endpoint_label = "melting point"
value = "181 °C"

[[record]]
molecule = "COc1ccc(C2(C#Cc3cccc(-c4nnc(C)s4)c3)CCC(O)CC2)cc1OC1CCCC1 (configuration not stated)"
endpoint_label = "melting point"
value = "129 to 130 °C"

[[record]]
molecule = "CC(C)(C)OC(=O)C=Cc1ccc2c(c1)OCO2"
endpoint_label = "melting point"
value = "82 to 83 °C"

[[record]]
molecule = "CCCc1c(OCCCCCc2ccccc2CCC(=O)O)ccc2c1OCCC2=O"
endpoint_label = "melting point"
value = "94 to 96 °C"

[[record]]
molecule = "CC1(C(=O)O)CCC(=O)c2cc(C3CCCCC3)c(Cl)cc21 (configuration not stated)"
endpoint_label = "melting point"
value = "227 to 228 °C"

[[record]]
molecule = "COC(=O)C1=C(CF)NC(C)=C(C(=O)OC(C)C)C1c1cccc(Cl)c1Cl (configuration not stated)"
endpoint_label = "melting point"
value = "148 to 149 °C"

[[record]]
molecule = "Nc1cccc(CCO)c1"
endpoint_label = "melting point"
value = "61 to 64 °C"

[[record]]
molecule = "Cc1c(C)c2c(c(C)c1N)CC(C)(CN1CCN(C(=O)CC(c3ccccc3)c3ccccc3)CC1)O2 (configuration not stated)"
endpoint_label = "melting point"
value = "77 to 78 °C"

[[record]]
molecule = "CC1(C)CN2C(N)=NC(c3ccc(OC(F)(F)F)cc3)(c3cccc(-c4cccnc4F)c3)C2=N1 (configuration not stated)"
endpoint_label = "melting point"
value = "89 to 97 °C"

[[record]]
molecule = "CN1CCC(C(O)(c2ccn(C)c2)c2ncc[nH]2)CC1 (configuration not stated)"
endpoint_label = "melting point"
value = "171 °C"

[[record]]
molecule = "O=C(O)c1cc(Br)c(O)cc1O"
endpoint_label = "melting point"
value = "210 to 212 °C"

[[record]]
molecule = "Cc1ccc(P2(=O)c3ccccc3CN2c2ccccc2)cc1 (configuration not stated)"
endpoint_label = "melting point"
value = "180 to 181 °C"

[[record]]
molecule = "COc1ccc(C)cc1NC(=O)Nc1ccc(C2=CCN(C(=O)Nc3cc(OCCO)ccc3Cl)CC2)cc1"
endpoint_label = "melting point"
value = "139 to 142 °C"

[[record]]
molecule = "O=C(NCCCCCCCNC(=O)c1ccc(OC(F)(F)F)cc1)c1ccc(OC(F)(F)F)cc1"
endpoint_label = "melting point"
value = "150 to 151 °C"

[[record]]
molecule = "Cc1ccc(-c2ccc(OC3SCC(O)C(O)C3O)cn2)o1 (configuration not stated)"
endpoint_label = "melting point"
value = "168 °C"

[[record]]
molecule = "O=C(CON=C(C(=O)O)c1csc(NC(=O)C(F)(F)F)n1)OC(c1ccccc1)c1ccccc1"
endpoint_label = "melting point"
value = "178 to 180 °C"

[[record]]
molecule = "COC(=O)c1ccccc1Oc1ccc(C)cc1[N+](=O)[O-]"
endpoint_label = "melting point"
value = "71 to 73 °C"

[[record]]
molecule = "O=C1Cc2cccc(Oc3ccccc3Cl)c2O1"
endpoint_label = "melting point"
value = "118 to 120 °C"

[[record]]
molecule = "COC(=O)c1cc2c(nc1Cl)CCCCC2"
endpoint_label = "melting point"
value = "148 to 149 °C"

[[record]]
molecule = "C=CCC(Cc1ccc(Cl)c(Cl)c1)NC(=O)c1cc(C)cc(C)c1 (configuration not stated)"
endpoint_label = "melting point"
value = "155 to 157 °C"

[[record]]
molecule = "COC(=O)NCCCCn1c(=O)c2c(C)nc3cccc1n32"
endpoint_label = "melting point"
value = "175 to 176 °C"

[[record]]
molecule = "O=C(O)c1cccnc1Nc1cccc([N+](=O)[O-])c1"
endpoint_label = "melting point"
value = "262 to 264 °C"

[[record]]
molecule = "O=S1(=O)c2ccccc2N(c2ccccc2)c2ccccc21"
endpoint_label = "melting point"
value = "212 to 217 °C"

[[record]]
molecule = "COc1cccc2c1C(=O)N1CCC[C@H]1c1c(C(=O)OC(C)(C)C)ncn1-2"
endpoint_label = "melting point"
value = "200 to 201 °C"

[[record]]
molecule = "Cc1nc(NCC(C)C)nc(N2CCc3ccccc3C2C)c1C (configuration not stated)"
endpoint_label = "melting point"
value = "93 to 95 °C"

[[record]]
molecule = "O=C(N[C@H](Cc1cccc(C(F)(F)F)c1)[C@@H](O)c1ccc(F)cc1)c1ccc(F)c2ccccc12 (racemic)"
endpoint_label = "melting point"
value = "193 to 194 °C"

[[record]]
molecule = "N#CC(NC(=O)c1cccc(Cl)c1)n1ccnn1 (configuration not stated)"
endpoint_label = "melting point"
value = "157 to 159 °C"

[[record]]
molecule = "Cc1cncc(/C=C/c2cccc(F)c2)n1"
endpoint_label = "melting point"
value = "43 to 44 °C"

[[record]]
molecule = "CC(=O)c1cccc(F)c1C(=O)O"
endpoint_label = "melting point"
value = "76 to 81.5 °C"

[[record]]
molecule = "CC(=O)OC(C(C(=O)C(C)(C)C)n1cncn1)C(Cl)(Cl)Cl (configuration not stated)"
endpoint_label = "melting point"
value = "115 to 119 °C"


Attribution: a melting point compilation (Tetko et al.; mined from patent text by program, amines drawn as free bases though some values may be those of a salt)
